- assay system: 酵母由来組換えhGM−CSF(Leukine Berlex) (human)
- method summary: SPR (Biacore), antibody captured through protein G on the chip, rhGM-CSF injected
Consider the following binders; for each one, report its pKd.
Give bare numbers, as −log10 of the molar value.

Solved cases below.
I am curious: what pKd value has been reported for EV1003 (antibody, V domains shown) VH: LVQLVQSEAEVKKPGASVRISCRTSGYIFPTFALHWVRQAPGQSLEWVGSINTASGKTKFSTKFQDRLTLSSNTSATTVYMDLSGLTLDDTALYYCARDRFQNIMATILDVWGQGTLVTVSS VL: DIVLTQSPGTLSLSPGERVTVSCRASHRVSSNYLAWYQQRPGQSPRLLIFGASNRATGVPDRFSGSGSGTDFALTISRLEPDDFAVYYCQQYASSPVTFGGGTKLEIK ?
9.64

I am curious: what pKd value has been reported for EV1019 (antibody, V domains shown) VH: QAQLVESGGGVVKPGGSLRLSCISSKFTFSSHAMHWVRQAPGKGLEWVAVIWHDGSKKYYADSVKGRFSVSRDNSKNTLFLQMDSLRAEDTAVYFCGKEWVGGTCDSWGQGTLVIVSS VL: QPALTQEASVSGTVGQTVTLLCSGNSSNIGSYAVGWYQQISRGAPKIVVFGKSPASGIPDRFSGSKSGTTASLLVSGLQPEDEADYYCSTWDSRLSAVLFGGGTKLTVLR ?
9.44

I am curious: what pKd value has been reported for EV1018 (antibody, V domains shown) VH: QVQLVESGGGMVQPGMPLRLSCVASGFTFSSYGMHWVRQAPGKGLEWVALTYHHGNRKFYADSVRGRFTISRDNSNNTLYLQMTSLRAEDTAVYFCARESMGAINDNWGQGTLVIVSS VL: QSALTQETSVSGTVGQKVTLSCIGNNNNIGSHAVGWYQQISRGAPKMVLFGRSPPSGVPDRFSGSKSGTTASLIISGLQPEDEADYYCSTWDSSLSAVVFGGGTKLTVLR ?
9.64

Turning to the following binder.
I am curious: what pKd value has been reported for EV1007 (antibody, V domains shown) VH: QVHLVQSGSELKKPGASVKVSCKASGYSFSRYGIKWVRQAPGQGLEWMGWINTRSGVPAYAQGFTGRFVFSLDTSVDTAFLEISSLKTEDTGIYYCATRPPRFYDKTEYWEDGFDVWGRGTLVTVSS VL: QSVLTQPPSASGTPGQSVNISCSGSSSNIGNSYVYWYQQLPGTAPKLLIYRNNRRPSGVPDRFSGSKSDTSASLAISGLRSEDEADYYCATWDDSLSGRLFGGGTKLTVL ?
8.92
